Each record here notes measured Peak-to-peak interval - 3D Mean.
Tested on: hiPSC-derived neurons co-cultured with human primary astrocytes in 3D
procedure-summary: Ca2+ transient oscillation assay (FDSS), 3D spheroids
Type: cell-based
assay-context: 0.37 µM; 60 min
readout-kind: Peak-to-peak interval - 3D Mean (% change from baseline)

                                   compound                               target_desc                       u  numeric_value
0  CCN(CC)CCCC(C)Nc1c2ccc(Cl)cc2nc2ccc(OC)cc12 (centres unmarked) [Quinacrine, quinacrine]  hiPSC-derived neurons co-cultured with human primary astrocytes in 3D  % change from baseline           −0.7
1  CNCCCC12CCC(c3ccccc31)c1ccccc12 [Maprotiline]  hiPSC-derived neurons co-cultured with human primary astrocytes in 3D  % change from baseline            6.2
2         Nc1ccncc1 [4-AP, 4-Aminopyridine]  hiPSC-derived neurons co-cultured with human primary astrocytes in 3D  % change from baseline           −9.2
3  CCn1cc(C(=O)O)c(=O)c2cc(F)c(N3CCNCC3)nc21 [Enoxacin]  hiPSC-derived neurons co-cultured with human primary astrocytes in 3D  % change from baseline           30.9
4  C=C(C)[C@H]1CN[C@H](C(=O)O)[C@H]1CC(=O)O [Kainic Acid]  hiPSC-derived neurons co-cultured with human primary astrocytes in 3D  % change from baseline            0.2

---

Test system: hiPSC-derived neurons co-cultured with human primary astrocytes in 2D
procedure-summary: Ca2+ transient oscillation assay (FDSS), 2D co-culture
Format: cell-based
assay-context: Homo sapiens, 1 h; 10 µM; 60 min; read-out: Peak Number—2D Mean
Protocol: In this study, we used cryopreserved excitatory neurons that were differentiated from human induced pluripotent stem cells (hiPSCs; Cat #: EX-SeV-CW50065) (Elixirgen Scientific, Inc., Baltimore, MD, USA). […] Prior to the fluorescence measurements, all wells to be measured were treated with 0.04% dimethyl sulfoxide (DMSO) to stabilize the oscillation signal. […] The effects of the test compound were recorded again starting 60 min after the administration of compounds, for 20 min. […]
readout-kind: activation at 10 µM (%)

In [3]: df
Out[3]:
                                   compound         readout_kind  numeric_value
0                        CC(=O)Nc1ccc(O)cc1  activation at 10 µM          -18.2
1           CNCCCC12CCC(c3ccccc31)c1ccccc12  activation at 10 µM           -100
2          CC[C@@H]1C(=O)OC[C@@H]1Cc1cncn1C  activation at 10 µM          -19.2
3  Cc1ccc(Nc2nccc(N(C)c3ccc4c(C)n(C)nc4c3)n2)cc1S(N)(=O)=O  activation at 10 µM             10
4  CCN(CC)CCCC(C)Nc1c2ccc(Cl)cc2nc2ccc(OC)cc12 (stereo not drawn)  activation at 10 µM          -92.2
5  CC(NC(C)(C)C)C(=O)c1cccc(Cl)c1 (stereo not drawn)  activation at 10 µM              6
6  OC(c1cc(C(F)(F)F)nc2c(C(F)(F)F)cccc12)C1CCCCN1 (stereo not drawn)  activation at 10 µM           -100
7                                 Nc1ccncc1  activation at 10 µM            110
8  CCn1cc(C(=O)O)c(=O)c2cc(F)c(N3CCNCC3)nc21  activation at 10 µM              2
